- system.under.test: human TSHR (Homo sapiens, UniProt P16473)
- Construct: expressed in transfected cells
- Sequence (P16473 21-764): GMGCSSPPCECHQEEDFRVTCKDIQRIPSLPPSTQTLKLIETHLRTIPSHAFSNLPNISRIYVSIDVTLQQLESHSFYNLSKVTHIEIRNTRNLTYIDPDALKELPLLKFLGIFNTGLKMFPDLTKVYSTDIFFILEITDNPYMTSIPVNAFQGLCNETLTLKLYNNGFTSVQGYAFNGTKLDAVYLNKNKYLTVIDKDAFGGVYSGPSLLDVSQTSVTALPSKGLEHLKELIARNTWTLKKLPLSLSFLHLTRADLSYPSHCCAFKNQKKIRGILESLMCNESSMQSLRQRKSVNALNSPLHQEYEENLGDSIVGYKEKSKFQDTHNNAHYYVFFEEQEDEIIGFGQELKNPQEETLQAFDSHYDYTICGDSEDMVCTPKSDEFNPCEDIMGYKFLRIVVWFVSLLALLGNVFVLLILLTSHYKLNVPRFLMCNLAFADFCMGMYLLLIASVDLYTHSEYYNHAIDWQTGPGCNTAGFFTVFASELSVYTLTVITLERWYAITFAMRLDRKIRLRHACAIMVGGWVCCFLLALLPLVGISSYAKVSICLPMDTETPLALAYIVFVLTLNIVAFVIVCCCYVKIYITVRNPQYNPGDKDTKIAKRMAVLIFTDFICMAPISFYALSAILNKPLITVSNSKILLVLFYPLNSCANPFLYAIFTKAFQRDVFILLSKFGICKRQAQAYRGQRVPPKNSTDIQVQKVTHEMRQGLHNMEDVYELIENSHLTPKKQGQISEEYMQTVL
- run.description: Homogeneous Time Resolved Fluorescence (HTRF) cAMP assay, TSHR cell line
- Assay type: cell-based
- run.parameters: HTRF cAMP, TSHR cell line, 30 minute incubation
measure: outcome

// below: answered compounds
>>> result("COc1ccc(O)c(-c2nc3ccccc3c(=O)n2Cc2ccccc2)c1 [Structure 211]")
"inactive"
>>> result("COc1ccc(C2Nc3ccccc3C(=O)N2Cc2ccccc2C)cc1COc1ccc(NC(C)=O)cc1 (stereo not shown) [Structure 201]")
"inactive"
>>> result("COc1ccc(C2Nc3ccccc3C(=O)N2CCO)cc1COc1ccc(NC(C)=O)cc1 (stereo not shown) [Structure 209]")
"inactive"
>>> result("COc1ccc(C2Nc3ccccc3C(=O)N2Cc2ccc(C(C)(C)C)cc2)cc1COc1ccc(NC(C)=O)cc1 (stereo not shown) [Structure 214]")
"inactive"
>>> result("COc1ccc(C2Nc3ccccc3C(=O)N2Cc2ccccc2)cc1Oc1ccc(NC(C)=O)cc1 (stereo not shown) [Structure 163]")
"inactive"

Provide outcome values for the following items, in order.
1. COc1ccc(-c2nc3ccccc3c(=O)n2Cc2ccccc2)cc1OCc1ccc(NC(C)=O)cc1 [Structure 195]
2. COc1ccc(C(=O)N(Cc2ccccc2)Cc2ccc(OC)c(COc3ccc(NC(C)=O)cc3)c2)c(O)c1 [Structure 168]
3. COc1ccc(C2Nc3ccccc3C(=O)N2Cc2ccco2)cc1COc1ccc([N+](=O)[O-])cc1 (stereo not shown) [Structure 290]
4. COc1ccc(C2Nc3ccccc3C(=O)N2Cc2ccco2)cc1 (stereo not shown) [Structure 156]
5. COc1ccc(C2Nc3ccccc3C(=O)N2Cc2ccccc2)cc1COc1ccc(F)cc1 (stereo not shown) [Structure 152]
6. O=C1c2ccccc2NC(c2cc(Br)c3c(c2)OCO3)N1Cc1ccco1 (stereo not shown) [Structure 148]

1. inactive
2. inactive
3. inactive
4. inactive
5. inactive
6. inactive

For every record below, what is its outcome?
1. COc1ccc(O)c(C2Nc3ccccc3C(=O)N2Cc2ccccc2)c1 (stereo not shown) [Structure 216]
2. COc1ccc(C2Nc3ccccc3C(=O)N2Cc2ccco2)cc1COc1c(C)cccc1C (stereo not shown) [Structure 182]
3. COc1ccc(-c2nc3ccc(NC(C)=O)cc3c(=O)n2Cc2ccccc2)cc1COc1ccc(NC(C)=O)cc1 [Structure 191]
4. O=C1CC(c2ccco2)CC2=C1C(c1cccnc1)n1nc(C(F)(F)F)nc1N2 (stereo not shown) [Structure 171]
5. COc1ccc(C2Nc3ccccc3C(=O)N2CCc2ccc(Cl)cc2Cl)cc1COc1ccc(NC(C)=O)cc1 (stereo not shown) [Structure 224]

1. inactive
2. inactive
3. inactive
4. inactive
5. inactive

---

- system.under.test: human TSHR (Homo sapiens, UniProt P16473)
- Construct: expressed in transfected cells
- run.description: Homogeneous Time Resolved Fluorescence (HTRF) cAMP assay, TSHR cell line
- Format: cell-based
- run.parameters: HTRF cAMP, TSHR cell line, 30 minute incubation; read-out: AC50
measure: AC50 (µM)
Answers are plain numbers, in µM.

>>> number("COc1ccc(CNc2ccccc2C(=O)NCc2ccccc2)cc1COc1ccc(NC(C)=O)cc1 [Structure 109]")
17.8
>>> number("COc1ccc(C2Nc3ccccc3C(=O)N2Cc2ccccc2OC)cc1COc1ccc(NC(C)=O)cc1 (centres unmarked) [Structure 198]")
20

Would you be so kind as to report AC50 for each listed record?
1. COc1ccc(CN(Cc2ccccc2)C(=O)c2ccccc2O)cc1COc1ccc(NC(C)=O)cc1 [Structure 65]
2. COc1ccc(CN(Cc2ccccc2)C(=O)C2CC2)cc1COc1ccc(NC(C)=O)cc1 [Structure 81]
3. COc1ccc(C2Nc3ccccc3C(=O)N2Cc2ccco2)cc1COc1ccc(NC(C)=O)cc1 (centres unmarked) [Structure 53]

[14.1, 15.8, 12.6]

Report AC50 for every entry below.
1. COc1ccc(CN(Cc2ccccc2)C(=O)c2ccccc2O)cc1 [Structure 291]
2. COc1ccc(C2Nc3ccccc3C(=O)N2Cc2ccc(C(F)(F)F)cc2)cc1COc1ccc(NC(C)=O)cc1 (centres unmarked) [Structure 197]
3. COc1ccc(C2Nc3ccccc3C(=O)N2Cc2cccc(-c3ccccc3)c2)cc1COc1ccc(NC(C)=O)cc1 (centres unmarked) [Structure 79]

1: 35.5; 2: 2.82; 3: 1.78
